biological target: UniProtKB P10828
Sequence (P10828 whole entry): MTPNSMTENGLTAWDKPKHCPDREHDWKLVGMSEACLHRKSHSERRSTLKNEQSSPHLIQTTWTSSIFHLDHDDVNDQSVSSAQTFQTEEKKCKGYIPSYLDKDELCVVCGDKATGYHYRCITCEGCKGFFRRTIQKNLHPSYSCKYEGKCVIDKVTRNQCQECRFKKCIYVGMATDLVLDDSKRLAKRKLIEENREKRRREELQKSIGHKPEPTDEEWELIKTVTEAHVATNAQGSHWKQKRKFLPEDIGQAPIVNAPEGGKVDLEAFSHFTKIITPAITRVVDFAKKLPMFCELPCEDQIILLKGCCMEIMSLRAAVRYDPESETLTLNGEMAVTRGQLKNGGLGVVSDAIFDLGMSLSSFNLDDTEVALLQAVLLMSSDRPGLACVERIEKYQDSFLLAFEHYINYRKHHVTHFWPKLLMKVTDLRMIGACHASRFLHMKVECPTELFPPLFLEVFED
measured.quantity: IC50 (nM)
Supply the numeric figure in nM, leaving out any unit text.

smiles.entry | units.of.measure | IC50
CC(C)C(=O)Nc1ccc(Oc2c(Cl)cc(CC(=O)O)cc2Cl)cc1Br | nM | 18

// next entry
Exam item: State IC50 (UniProtKB P10828) of CCC(CC)C(=O)Nc1ccc(Oc2c(Cl)cc(CC(=O)O)cc2Cl)cc1Br .
Marked response: 16

###

target: Thyroid hormone receptor (Homo sapiens) (UniProt P10827+P10828); assay: Selectivity for human thyroid hormone receptor beta 1 over thyroid hormone receptor alpha 1; format: protein-complex assay
compounds and their reported Ratio IC50

Check out these entries, answers already filled in.
compound | system | Ratio IC50
CCC(=O)Nc1ccc(Oc2c(Cl)cc(CC(=O)O)cc2Cl)cc1Br | Thyroid hormone receptor (Homo sapiens) (UniProt P10827+P10828) | 14
CC(C)C(=O)Nc1ccc(Oc2c(Cl)cc(CC(=O)O)cc2Cl)cc1Br | Thyroid hormone receptor (Homo sapiens) (UniProt P10827+P10828) | 21
CCCC(C)C(=O)Nc1ccc(Oc2c(Cl)cc(CC(=O)O)cc2Cl)cc1Br (stereo unspecified) | Thyroid hormone receptor (Homo sapiens) (UniProt P10827+P10828) | 16

Exam item: Consider the compound CCC(C)C(=O)Nc1ccc(Oc2c(Cl)cc(CC(=O)O)cc2Cl)cc1Br (stereo unspecified) . State its measured Ratio IC50.
Marked response: 33

Exam item: Consider the compound CCCC(CCC)C(=O)Nc1ccc(Oc2c(Cl)cc(CC(=O)O)cc2Cl)cc1Br . State its measured Ratio IC50.
Marked response: 16

Exam item: Consider the compound CCC(CC)C(=O)Nc1ccc(Oc2c(Cl)cc(CC(=O)O)cc2Cl)cc1Br . State its measured Ratio IC50.
Marked response: 22
